As shown below, each of these compounds has a reported pIC50 value.
# Tested Target: Rat thymus glucocorticoid receptor (Rattus norvegicus)
# Construct: The supernatant cytosol is used as the source of receptor; from tissue; host or cells: thymus of male adrenalectomised rats, 100,000 g supernatant cytosol
# Sequence (P06536 1-795): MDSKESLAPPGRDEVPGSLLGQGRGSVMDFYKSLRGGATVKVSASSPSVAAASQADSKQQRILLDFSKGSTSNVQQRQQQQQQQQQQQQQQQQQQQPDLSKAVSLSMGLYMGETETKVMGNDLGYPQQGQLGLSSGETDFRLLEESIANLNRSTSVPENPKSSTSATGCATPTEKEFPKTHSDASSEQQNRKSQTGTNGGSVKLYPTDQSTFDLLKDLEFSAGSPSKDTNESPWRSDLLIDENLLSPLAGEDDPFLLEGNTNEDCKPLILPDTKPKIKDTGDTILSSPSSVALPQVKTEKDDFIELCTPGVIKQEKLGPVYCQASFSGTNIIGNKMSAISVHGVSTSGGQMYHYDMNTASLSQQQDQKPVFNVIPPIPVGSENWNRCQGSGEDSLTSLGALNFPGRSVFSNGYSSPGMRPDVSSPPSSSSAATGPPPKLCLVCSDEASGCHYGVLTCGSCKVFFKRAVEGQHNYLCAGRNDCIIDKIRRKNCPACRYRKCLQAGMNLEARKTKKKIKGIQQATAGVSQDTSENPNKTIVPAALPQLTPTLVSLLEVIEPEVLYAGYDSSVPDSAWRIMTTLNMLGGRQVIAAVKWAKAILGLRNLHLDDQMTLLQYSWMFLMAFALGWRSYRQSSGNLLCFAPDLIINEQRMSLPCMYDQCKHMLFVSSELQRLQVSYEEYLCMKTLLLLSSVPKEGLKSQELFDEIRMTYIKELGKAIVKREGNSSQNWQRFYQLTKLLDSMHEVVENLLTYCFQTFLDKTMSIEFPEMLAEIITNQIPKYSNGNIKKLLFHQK
# Method: Steroid binding to the rat thymus glucocorticoid receptor ([3H] dexamethasone displacement)
# Applied Conditions: 4 nM [3H] dexamethasone, 24 hours at 4° C., rat thymus cytosol; read-out: IC50 (concentration reducing [3H] dexamethasone binding by 50%)
Schema: pIC50 number; meaning minus log10 of the concentration expressed in molar units.

Solved cases (5 shown):
INSERT INTO assay_data (compound, value_reported) VALUES
  ('CC1(C)O[C@@H]2C[C@H]3[C@@H]4C[C@H](F)C5=CC(=O)C=C[C@]5(C)[C@@]4(F)[C@@H](O)C[C@]3(C)[C@]2(SCF)O1', 8.39),
  ('CCC[C@H]1O[C@@H]2C[C@H]3[C@@H]4C[C@H](F)C5=CC(=O)CC[C@]5(C)[C@@]4(F)[C@@H](O)C[C@]3(C)[C@]2(SC)O1', 8.54),
  ('C/C=C/[C@@H]1O[C@@H]2C[C@H]3[C@@H]4CCC5=CC(=O)C=C[C@]5(C)[C@@]4(F)[C@@H](O)C[C@]3(C)[C@]2(SC)O1', 8.59),
  ('CCCC1O[C@@H]2C[C@H]3[C@@H]4CCC5=CC(=O)C=C[C@]5(C)[C@@]4(F)[C@@H](O)C[C@]3(C)[C@]2(SCC)O1 (some centres unmarked)', 8.39),
  ('CCCC1O[C@@H]2C[C@H]3[C@@H]4CC(=O)C5=CC(=O)CC[C@]5(C)[C@@]4(F)[C@@H](O)C[C@]3(C)[C@]2(SC)O1 (some centres unmarked)', 8.47);

Query pIC50 on Rat thymus glucocorticoid receptor (Rattus norvegicus) for `CCC[C@@H]1O[C@@H]2C[C@H]3[C@@H]4CCC5=CC(=O)C=C[C@]5(C)[C@@]4(F)[C@@H](O)C[C@]3(C)[C@]2(SC)O1`
8.77

Query pIC50 on Rat thymus glucocorticoid receptor (Rattus norvegicus) for `CC1(C)O[C@@H]2C[C@H]3[C@@H]4CCC5=CC(=O)C=C[C@]5(C)[C@@]4(F)[C@@H](O)C[C@]3(C)[C@]2(S(C)(=O)=O)O1`
8.42

Query pIC50 on Rat thymus glucocorticoid receptor (Rattus norvegicus) for CCC[C@@H]1O[C@@H]2C[C@H]3[C@@H]4C[C@H](F)C5CC(=O)CC[C@]5(C)[C@@]4(F)[C@@H](O)C[C@]3(C)[C@]2(SC)O1 (some centres unmarked)
8.59
